The values you see were collected from ChEMBL document CHEMBL3433997.

Each entry below carries its reported inhibition.
study.system: Solute carrier family 2, facilitated glucose transporter member 1 (Homo sapiens) (UniProt P11166)
Sequence (P11166 whole entry): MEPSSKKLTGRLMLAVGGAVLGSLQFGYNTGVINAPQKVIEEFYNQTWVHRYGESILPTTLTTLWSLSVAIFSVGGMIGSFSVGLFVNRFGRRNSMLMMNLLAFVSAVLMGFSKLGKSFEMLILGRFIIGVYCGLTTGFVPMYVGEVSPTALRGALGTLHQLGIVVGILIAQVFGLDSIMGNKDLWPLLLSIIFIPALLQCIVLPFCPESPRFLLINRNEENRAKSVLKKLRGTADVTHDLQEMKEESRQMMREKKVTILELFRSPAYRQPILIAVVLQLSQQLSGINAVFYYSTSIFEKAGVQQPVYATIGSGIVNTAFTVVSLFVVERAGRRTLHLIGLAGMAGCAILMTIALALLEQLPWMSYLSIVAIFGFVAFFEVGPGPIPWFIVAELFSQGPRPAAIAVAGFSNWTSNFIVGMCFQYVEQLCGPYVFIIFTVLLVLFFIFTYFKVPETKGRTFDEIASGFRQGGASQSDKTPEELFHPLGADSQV
test.details: ST_JUDE_LEISH: Cytotoxicity at 2uM final concentration against transgenic Leishmania Mexicana promastigotes LmGLUT1 that are glucose transport deficient and complemented with the human glucose transporter GLUT1. Activity is measured by DNA content using SYBR green in vitro
Assay type: functional
The answer is to be given in %; state only the numeric part.

molecule	inhibition (%)
Clc1ccc2c(N3CCCNCC3)ccnc2c1	1.53
O=C(Cc1cccnc1)Nc1cccc(-c2cccc(-c3nc4cc(C(F)(F)F)ccc4[nH]3)c2)c1	2.67
CC(=NNC(=N)N)c1ccc2c(ccc3ccccc32)c1	2.47
CCc1cn2c3c(cc(C(=O)N[C@@H](Cc4ccccc4)[C@H](O)CNCCOC)cc13)N(C)S(=O)(=O)CC2	5.11
Cc1cc(N)nc2ccc(-c3cccc(CN)c3)cc12	0.78
NC1=NC2(CCCCC2)N(OCCCCCCCCNc2nc(N)nc(N)n2)C(N)=N1	4.34

Turning now to a further molecule:
State its inhibition: CCc1c(C(=O)NC2CCC(N3CCC(c4ccccc4OC)CC3)CC2)[nH]c2ccc(OC)cc12 (centres undefined) 1.56
